# stoichiometry N values compiled below
MEASUREMENT TARGET: T1, factor inhibiting HIF-1 (FIH-1), full-length (human, UniProt Q9NWT6 1-349)
T1 construct: Dimer by SEC and SEC-MALS; The TEV site ENLYFQ lay between the His6 tag and FIH-1; also called FIH-1 WT; source: E. coli BL21 (DE3), purified (Ni-NTA, TEV cleavage, SEC); not shown: His6, N-terminal, cleaved
T1 sequence (Q9NWT6 whole entry): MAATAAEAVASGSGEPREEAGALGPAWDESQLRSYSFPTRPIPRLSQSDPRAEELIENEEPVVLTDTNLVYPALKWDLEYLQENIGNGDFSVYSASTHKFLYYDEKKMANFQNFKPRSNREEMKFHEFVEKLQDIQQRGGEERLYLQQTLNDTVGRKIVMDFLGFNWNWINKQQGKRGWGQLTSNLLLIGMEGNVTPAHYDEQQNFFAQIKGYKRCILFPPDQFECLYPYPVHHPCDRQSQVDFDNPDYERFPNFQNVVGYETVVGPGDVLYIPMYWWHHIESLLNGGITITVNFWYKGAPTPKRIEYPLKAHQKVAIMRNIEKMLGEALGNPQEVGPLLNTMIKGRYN
ASSAY TEXT: ITC; MicroCal iTC200, 25 °C; 150 μM Mint3 in the syringe, 30 μM FIH-1 in the cell, 25 injections of 1.5 μl; 35 mM Na-phosphate pH 7.5, 300 mM NaCl, 500 μM αKG; single set of sites model; for Figure 4 also in the absence of αKG and/or with EDTA
CONDITION SUMMARY: both partners purified

# BINDER, stoichiometry N
measured = [
    ("Mint3 fragment (1–92) (domain or fragment, human, UniProt O96018 1-92, looked up, source: E. coli BL21 (DE3), purified (mutants/fragments prepared as Mint3NT)) MDFPTISRSPSGPPAMDLEGPRDILVPSEDLTPDSQWDPMPGGPGSLSRMELDESSLQELVQQFEALPGDLVGPSPGGAPCPLHIATGHGLA", "~0.5"),
    ("Mint3(1–117), N-terminal half of Mint3NT (domain or fragment, human, UniProt O96018 1-117, looked up, source: E. coli BL21 (DE3), purified (mutants/fragments prepared as Mint3NT)) MDFPTISRSPSGPPAMDLEGPRDILVPSEDLTPDSQWDPMPGGPGSLSRMELDESSLQELVQQFEALPGDLVGPSPGGAPCPLHIATGHGLASQEIADAHGLLSAEAGRDDLLGLLH", "~0.5"),
    ("SQEIADAHGLLSAEAGRDDLLGLLH (peptide, UniProt O96018 93-117, looked up, The methods say only that mutants/fragments of Mint3 were prepared as Mint3NT (E. coli, C-terminal His6); the results call this a peptide and speak of synthesis for the peptide 78-88, so it may be synthetic) [short peptide of Mint3 (93–117)]", "~0.5"),
    ("Mint3NT, N-terminal fragment (1–214) of Mint3 (domain or fragment, human, UniProt O96018 1-214, looked up, Mint3 (X11γ/APBA3), human, N-terminal fragment, residues 1-214; Uniformly 15N-labelled (M9 medium) for the NMR titration; No cleavage site is told for the C-terminal His6 tag; also called Mint3(1–214); 15N-Mint3NT; source: E. coli BL21 (DE3), purified (Ni-NTA, SEC; monomer fraction collected)) MDFPTISRSPSGPPAMDLEGPRDILVPSEDLTPDSQWDPMPGGPGSLSRMELDESSLQELVQQFEALPGDLVGPSPGGAPCPLHIATGHGLASQEIADAHGLLSAEAGRDDLLGLLHCEECPPSQTGPEEPLEPAPRLLQPPEDPDEDSDSPEWVEGASAEQEGSRSSSSSPEPWLETVPLVTPEEPPAGAQSPETLASYPAPQEVPGPCDHED", 0.48),
    ("Mint3NTmut, Mint3NT (1–214) with the mutations … → AAASAAAGRD (domain or fragment, human, UniProt O96018 1-214, looked up, source: E. coli BL21 (DE3), purified (mutants/fragments prepared as Mint3NT)) MDFPTISRSPSGPPAMDLEGPRDILVPSEDLTPDSQWDPMPGGPGSLSRMELDESSLQELVQQFEALPGDLVGPSPGGAPCPLHIATGHGLASQEIADAHAAASAAAGRDDLLGLLHCEECPPSQTGPEEPLEPAPRLLQPPEDPDEDSDSPEWVEGASAEQEGSRSSSSSPEPWLETVPLVTPEEPPAGAQSPETLASYPAPQEVPGPCDHED", "~0.5"),
]

// provenance: paper PMC8571082
